molecular target: HSP90α (Homo sapiens, UniProt P07900, I104V); experiment: Enzyme binding (competition fluorescence polarization) assay with TSD-FP probe; details: method of Example A-1; incubation time not stated; read-out: Binding Affinity IC50
property.name: IC50 (nM)

P: COc1cccc(-c2cc(F)ccc2[C@H]2Cc3nc(N)nc(C)c3/C(=N/OCC(=O)N(C)CCO)N2)n1
Q: COc1cccc(-c2cc(F)ccc2[C@H]2Cc3nc(N)nc(C)c3C(NOCC(=O)N(C)C[C@H](O)CO)=N2)n1
Kindly identify which of P and Q has the larger recorded IC50 value. Select an item and report its label. Q
(Q: 13 nM, P: 8 nM)

###

molecular target: HSP90α (Homo sapiens, UniProt P07900, I104V); construct: made in house; host or cells: E. coli (BL21); experiment: Enzyme binding (competition fluorescence polarization) assay with TSD-FP probe; settings: method of Example A-1; incubation time not stated; read-out: Binding Affinity IC50
property.name: IC50 (nM)

Known results for compounds:
Read the entry COc1cccc(-c2cc(F)ccc2[C@H]2Cc3nc(N)nc(C)c3C(NOCC(=O)N(C)C)=N2)n1 [Compound 83] and write its reported IC50. 8

Read the entry COc1cccc(-c2cc(F)ccc2[C@H]2Cc3nc(N)nc(C)c3C(NOC3C[C@@H](O)[C@@H](O)C3)=N2)n1 (stereo partly shown) [Compound 58] and write its reported IC50. 5

Read the entry COc1cccc(-c2cc(F)ccc2[C@H]2Cc3nc(N)nc(C)c3C(NOCC3C[C@@H](O)[C@@H](O)C3)=N2)n1 (stereo partly shown) [Compound 59] and write its reported IC50. 8

Read the entry COc1cccc(-c2cc(F)ccc2[C@H]2Cc3nc(N)nc(C)c3/C(=N/OCC[C@H](O)CO)N2)n1 [Compound 37] and write its reported IC50. 6

a: COc1cccc(-c2cc(F)ccc2[C@H]2Cc3nc(N)nc(C)c3/C(=N/OCCCCO)N2)n1 [Compound 79]
b: COc1cccc(-c2cc(F)ccc2[C@H]2Cc3nc(N)nc(C)c3C(NOCC(CO)CO)=N2)n1 [Compound 35]
c: COc1cccc(-c2cc(F)ccc2[C@H]2Cc3nc(N)nc(C)c3/C(=N/O)N2)n1 [Compound 61]
Place the items in sequence of falling IC50. The reply should contain the labels ordered as requested. b, a, c

###

Target: HSP90α (Homo sapiens, UniProt P07900, I104V)
Assay: Enzyme binding (competition fluorescence polarization) assay with TSD-FP probe
Details: method of Example A-1; incubation time not stated; read-out: Binding Affinity IC50
Method: The reaction can be followed kinetically using fluorescence (excitation λ=485 nm; emission λ=538 nm). The binding affinity of the test compound to HSP90 is determined by the changes in the polarized fluorescence; the intensity of the polarized fluorescence is proportional to the fraction of bound probe. […] Inhibition constants (IC50) may be calculated by non-linear curve fitting of the compound concentrations and fluorescence intensities to the standard IC50 equation. […]
pIC50: −log10 of the molar value.
property.name: pIC50

Known results for molecules:
Read the entry COc1cccc(-c2cc(F)ccc2[C@H]2Cc3nc(N)nc(C)c3/C(=N/OC[C@H](O)CO)N2)n1 [Compound 33] and write its reported pIC50. 8.40

Read the entry COc1cccc(-c2cc(F)ccc2[C@H]2Cc3nc(N)nc(C)c3/C(=N/O[C@@H](CCO)C(=O)N(C)C)N2)n1 [Compound 93] and write its reported pIC50. 8.10

Read the entry COc1cccc(-c2cc(F)ccc2[C@H]2Cc3nc(N)nc(C)c3/C(=N/OCC(=O)N3CC[C@@H](F)C3)N2)n1 [Compound 85] and write its reported pIC50. 8.40

A: COc1cccc(-c2cc(F)ccc2[C@H]2Cc3nc(N)nc(C)c3C(NOCCCO)=N2)n1 [Compound 78]
B: COc1cccc(-c2cc(F)ccc2[C@H]2Cc3nc(N)nc(C)c3C(NOCC3CCC(O)CC3)=N2)n1 (some centres unmarked) [Compound 65]
Sorting ascending by pIC50, which comes first: A or B ? Select an item and report its label. B
